# pIC50 annotations
Biological target: UniProtKB Q9Y4P1
Sequence (Q9Y4P1 whole entry): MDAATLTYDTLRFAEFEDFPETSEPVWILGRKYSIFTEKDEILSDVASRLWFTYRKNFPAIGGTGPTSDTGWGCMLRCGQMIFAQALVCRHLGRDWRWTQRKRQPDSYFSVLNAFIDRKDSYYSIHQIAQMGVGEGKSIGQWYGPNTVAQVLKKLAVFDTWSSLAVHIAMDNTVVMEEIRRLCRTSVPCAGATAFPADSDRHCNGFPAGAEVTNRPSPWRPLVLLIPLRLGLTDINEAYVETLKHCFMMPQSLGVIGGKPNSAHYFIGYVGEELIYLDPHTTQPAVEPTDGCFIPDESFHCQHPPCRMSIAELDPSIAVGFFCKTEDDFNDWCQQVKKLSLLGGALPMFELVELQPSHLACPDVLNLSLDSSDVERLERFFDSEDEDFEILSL
Assay: Inhibition of recombinant ATG4B (unknown origin) expressed in Escherichia coli BL21(DE3) pLysS cells using LC3-GST as substrate incubated for 3 hrs by coomassie brilliant blue staining based assay
pIC50: −log10 of the molar value.
quantity: pIC50

smilesNotation	quantity	observedValue
CCCCCCCCCCCc1ccc(C(=O)/C=C/C(=O)O)cc1	pIC50	4.96
CCCCCc1ccc(C(=O)/C=C/C(=O)O)cc1	pIC50	4.44
CCCCCCCCCCCCCCCCCc1ccc(C(=O)/C=C/C(=O)O)cc1	pIC50	4.33
CCCCCCCCCCCCc1ccc(C(=O)/C=C/C(=O)O)cc1	pIC50	4.89
CCCCCCCCCc1ccc(C(=O)/C=C/C(=O)O)cc1	pIC50	4.68
O=C(O)/C=C/C(=O)c1ccccc1	pIC50	3.24
CCCCCCCc1ccc(C(=O)/C=C/C(=O)O)cc1	pIC50	4.59
CCCCCCCCCCCCCCCCCCc1ccc(C(=O)/C=C/C(=O)O)cc1	pIC50	4.92
CCCCCCCCCCCCCCCCCCCc1ccc(C(=O)/C=C/C(=O)O)cc1	pIC50	4.14
CCCc1ccc(C(=O)/C=C/C(=O)O)cc1	pIC50	3.89
CCCCCCCCCCCCCCCc1ccc(C(=O)/C=C/C(=O)O)cc1	pIC50	4.34
CCCCCCCCCCc1ccc(C(=O)/C=C/C(=O)O)cc1	pIC50	4.89
CCCCCCCCCCCCCc1ccc(C(=O)/C=C/C(=O)O)cc1	pIC50	4.68
CCCCCCCCCCCCCCCCCCCCCc1ccc(C(=O)/C=C/C(=O)O)cc1	pIC50	4.38

Entry source: ChEMBL document CHEMBL5154778
